Please provide measured pIC50 for the entries that follow.
pIC50: −log10 of the molar value.

-- ask Write down the reported pIC50 of Fc1ccc(F)c([C@H]2C[C@H](F)CN2c2n[nH]c3ncc(-c4cnn(C5CNC5)c4)cc23)c1 [US12391687, Example 26] , test system: BDNF/NT-3 growth factors receptor (Homo sapiens, UniProt Q16620).
Sequence (Q16620 whole entry): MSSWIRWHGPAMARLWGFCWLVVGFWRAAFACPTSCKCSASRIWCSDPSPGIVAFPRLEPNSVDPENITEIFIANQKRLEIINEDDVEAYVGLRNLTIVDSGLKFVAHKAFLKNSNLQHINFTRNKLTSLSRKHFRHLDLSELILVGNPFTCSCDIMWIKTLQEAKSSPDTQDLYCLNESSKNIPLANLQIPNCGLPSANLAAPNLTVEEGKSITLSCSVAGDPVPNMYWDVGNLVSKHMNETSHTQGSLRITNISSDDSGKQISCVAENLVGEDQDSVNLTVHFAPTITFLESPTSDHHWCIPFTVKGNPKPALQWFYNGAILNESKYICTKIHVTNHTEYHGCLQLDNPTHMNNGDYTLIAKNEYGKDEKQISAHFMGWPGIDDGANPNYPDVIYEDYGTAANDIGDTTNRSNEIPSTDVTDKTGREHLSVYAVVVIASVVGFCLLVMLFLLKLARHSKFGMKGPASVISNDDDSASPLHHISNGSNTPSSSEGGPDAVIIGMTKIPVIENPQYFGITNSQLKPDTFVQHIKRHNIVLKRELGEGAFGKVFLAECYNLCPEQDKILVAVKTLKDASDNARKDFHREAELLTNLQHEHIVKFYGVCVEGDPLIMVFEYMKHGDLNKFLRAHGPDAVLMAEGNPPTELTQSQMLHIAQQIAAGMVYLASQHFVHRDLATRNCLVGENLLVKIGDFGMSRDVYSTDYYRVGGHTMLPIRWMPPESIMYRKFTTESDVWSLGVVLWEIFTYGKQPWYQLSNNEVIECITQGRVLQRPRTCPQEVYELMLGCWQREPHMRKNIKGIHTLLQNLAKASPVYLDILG
-- reply > 9.00

-- ask Write down the reported pIC50 of CC(C)OCc1nnc(-c2cnc3[nH]nc(N4C[C@@H](F)C[C@@H]4c4cc(F)ccc4F)c3c2)o1 [US12391687, Example 42] , test system: BDNF/NT-3 growth factors receptor (Homo sapiens, UniProt Q16620).
-- reply > 9.00

-- ask Write down the reported pIC50 of CNC(=O)c1cnc2[nH]nc(N3CCC[C@@H]3c3cc(F)ccc3F)c2c1 [US12391687, Example 7] , test system: BDNF/NT-3 growth factors receptor (Homo sapiens, UniProt Q16620).
-- reply > 8.00
